Test: NCI Yeast Anticancer Drug Screen. Data for the mec2-1 strain (AID 157)
Details: S. cerevisiae mec2-1 strain, at 50.0 µM (retest, dose inferred, filed as 5.0), stronger effect = higher value
Compounds without any hit were thinned out: in the full panel of roughly 79,000, 15% have a hit.
property.name: growth inhibition (%)
Only the number, expressed in %, is required.

Below, 6 compounds whose answers are already recorded.
CC1COC(=O)O1 (configuration not stated): -2
COC(=O)CCC(C)C1CCC2C3CCC4CC(SC(=N)N)CCC4(C)C3CC(O)C12C (configuration not stated): 99
Cn1c(=S)c2[nH]c(=S)[nH]c2n(C)c1=O: 92
CC(=O)C1CCC2C3CC(F)C4(O)CC(O)CCC4(C)C3CCC12C (configuration not stated): 99
O=c1oc2ccccc2c(O)c1/C=N/C(=S)Nc1ccccc1: 87
[N-]=[N+]=CC(=O)C1(c2ccccc2)OC1c1ccccc1 (configuration not stated): 10

The value of growth inhibition measured for the compound CSc1nc(C)c(C(=O)CCN2CCOCC2)s1 turned out to be 99

The value of growth inhibition measured for the compound CN(C(=O)c1cccs1)C(=S)N1CCN(c2ccccc2)CC1 turned out to be 68

The value of growth inhibition measured for the compound OC(c1ccccc1)(c1ccccc1)c1ccc[cH-]1.OC(c1ccccc1)(c1ccccc1)c1ccc[cH-]1.[Fe+2] turned out to be -1

The value of growth inhibition measured for the compound O=C(c1ccc([N+](=O)[O-])cc1)C(Br)C(Br)c1ccnc2ccccc12 (configuration not stated) turned out to be 63

The value of growth inhibition measured for the compound CN(C)C(=S)/N=c1\ss/c(=N\C(=S)N(C)C)n1-c1cccc(Cl)c1 turned out to be 2

The value of growth inhibition measured for the compound Cc1cc(C)nc(CCSS(=O)(=O)O)c1 turned out to be 2

The value of growth inhibition measured for the compound C=CCCCCCCCCC(=O)ON(Cc1ccc(O)c(OC)c1)C(=O)C(F)(F)F turned out to be 66

The value of growth inhibition measured for the compound O=C(/C=C/c1ccccc1)NOC(=O)/C=C/c1ccccc1 turned out to be 95

The value of growth inhibition measured for the compound CCN1/C(=C/C(C)=C/c2sc3ccccc3[n+]2CC)Sc2ccccc21 turned out to be 100

The value of growth inhibition measured for the compound CCCNCC/C=C/[Si](C)(C)C turned out to be 99

The value of growth inhibition measured for the compound Cc1cc(C2C(O)C(c3cc(C)on3)C2(C)O)no1 (configuration not stated) turned out to be 13

The value of growth inhibition measured for the compound CC(=O)NCCN(C)C turned out to be -4

The value of growth inhibition measured for the compound C#CCOC(=O)Nc1nc2ccc(SC#N)cc2s1 turned out to be 87

The value of growth inhibition measured for the compound CCOC(=O)c1cnc2ccc(C3CCCCC3)cc2c1Nc1ccc2c(c1)OCO2 turned out to be 95

The value of growth inhibition measured for the compound C=CCOc1c(CCC)cc(CN)cc1CCC turned out to be -6

The value of growth inhibition measured for the compound COc1cccc2c1C(=O)c1c(O)c3c(c(O)c1C2=O)CC(O)(C(=O)CO)CC3OC1CC(N)C(O)C(C)O1.[Cl][Pt+2][Cl].[NH2-].[NH2-] (configuration not stated) turned out to be 47

The value of growth inhibition measured for the compound CN1C=Cc2ccccc2C1C(C1c2ccccc2C=CN1C)[N+](=O)[O-] (configuration not stated) turned out to be 12

The value of growth inhibition measured for the compound OCCN=Cc1cccs1 turned out to be 5

The value of growth inhibition measured for the compound CC(C)(C)CC(C)(C)N[P+](NC(C)(C)CC(C)(C)C)(NC(C)(C)CC(C)(C)C)NC(C)(C)CC(C)(C)C turned out to be 99

---

Experiment: NCI Yeast Anticancer Drug Screen. Data for the sgs1 mgt1 strain (AID 161);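 further: 0% = growth of cultures given vehicle only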
Settings: S. cerevisiae sgs1 mgt1 strain, at 50.0 µM (retest, dose inferred, filed as 5.0)
The panel holds about 79,000 compounds, 15% with a hit somewhere; the sample as a whole holds those more often. Active and inactive are the calls of the source. Rule as the data show it: active = growth inhibition above about 70%; inactive = the rest.
Pick one: active, inactive

Here are 2 compounds together with their reported answers.
CCO/C=C1\C(=O)C=C(C)CC1c1ccc(OC)c(OC)c1OC (configuration not stated): active
CCn1c2ccccc2n2c(=O)cc(-c3ccccc3)c(C#N)c12: inactive

Asked: Given O=C1C=CC(=O)c2c(O)c(N3CCN(CCOCCO)CC3)c(Br)c(O)c21 , state the outcome it received in this test.
Given back: active

Asked: Given N=Cc1cc([N+](=O)[O-])ccc1O , state the outcome it received in this test.
Given back: active

Asked: Given N=C(N)c1ccc(-c2ccc(-c3ccc(C(=N)N)cc3)o2)cc1 , state the outcome it received in this test.
Given back: inactive

Asked: Given O=C(O)C(=O)Cc1ccc(O)cc1 , state the outcome it received in this test.
Given back: inactive

Asked: Given CCC(Sc1ccccc1[N+](=O)[O-])[N+](=O)[O-] (configuration not stated) , state the outcome it received in this test.
Given back: inactive

Asked: Given CCCNCCCC(C)Nc1cc(OC)cc2c(C)ccnc12 (configuration not stated) , state the outcome it received in this test.
Given back: active

Asked: Given COc1cccc(/C=C2/Sc3scc(-c4ccccc4)[n+]3C2=O)c1O , state the outcome it received in this test.
Given back: inactive

Asked: Given S=C(NCc1ccccc1)N/N=C/c1ccccn1 , state the outcome it received in this test.
Given back: inactive

Asked: Given c1cc2cc(Cc3ccc4[nH]ccc4c3)ccc2[nH]1 , state the outcome it received in this test.
Given back: inactive

Asked: Given Nc1ccc(O)c(=O)cc1 , state the outcome it received in this test.
Given back: inactive

---

Test: NCI Yeast Anticancer Drug Screen. Data for the rad50 strain (AID 155);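 further: 0% = growth of vehicle-only cultures of the same strain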
Conditions: S. cerevisiae rad50 strain growth inhibition; at 50.0 µM
The panel holds about 79,000 compounds, 15% with a hit somewhere; the sample as a whole holds those more often. Activity calls are given as the source filed them. Rule as the data show it: active = growth inhibition above about 70%; inactive = the rest.
Pick one: active, inactive

CC(C)Cc1cc(O)cc2ccccc12: active

Asked: Given COC1CCCCC1C(=O)C(C#N)C1CCCCC1C1CCCCC1 (stereo unspecified) , state the outcome it received in this test.
Given back: active

Asked: Given COc1cc(C2c3cc4c(cc3OC3(O)C=C(C)OC(=O)C23)OCO4)cc(OC)c1OC (stereo unspecified) , state the outcome it received in this test.
Given back: inactive

---

Assay: NCI Yeast Anticancer Drug Screen. Data for the cln2 rad14 strain (AID 165);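 further: 0% = growth equal to vehicle treated cultures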
Conditions: S. cerevisiae cln2 rad14 strain, at 5.0 µM (retest, dose inferred, filed as 0.5), stronger effect = higher value
This is part of a sample that, as a whole, favours compounds with a hit. Of some 79,000 tested, about 15% had one in any assay.
property.name: growth inhibition (%)
Only the number, expressed in %, is required.

O=C(CN(Cc1ccccc1)Cc1ccccc1)N1CCc2c([nH]c3ccccc23)C1c1cccnc1 (stereo not drawn): 19

The value of growth inhibition measured for the molecule COc1cc(N=Nc2ccccc2)cc(/C=N/NC(N)=S)c1O turned out to be -9

The value of growth inhibition measured for the molecule C[N+]1(Cc2ccc([N+](=O)[O-])cc2)CCC[C@H]1c1ccc[n+](Cc2ccc([N+](=O)[O-])cc2)c1 (stereo partly drawn) turned out to be -7

The value of growth inhibition measured for the molecule NC(=O)C(=CNc1nc(-c2ccc(Br)cc2)cs1)C(N)=O turned out to be -34

The value of growth inhibition measured for the molecule CCCCCCCCCCN1Cc2ccccc2C1 turned out to be 68

The value of growth inhibition measured for the molecule COc1ccc2c(c1)CC1c3c(ccc(OC)c3O)CC2N1C (stereo not drawn) turned out to be -24

The value of growth inhibition measured for the molecule O=C(SCCCc1ccccc1)c1cc([N+](=O)[O-])cc([N+](=O)[O-])c1 turned out to be 94

---

# key: entry, value: growth inhibition
Assay: NCI Yeast Anticancer Drug Screen. Data for the sgs1 mgt1 strain (AID 161);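 further: 0% = growth of cultures given vehicle only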
Details: S. cerevisiae sgs1 mgt1 strain, at 50.0 µM, stronger effect = higher value
The panel holds about 79,000 compounds, 15% with a hit somewhere; the sample as a whole holds those more often. Active and inactive are the calls of the source. Cut-off read from the data, not from the text of the source: active = growth inhibition above about 70%; inactive = the rest.

Oc1c(Br)cc(Cl)cc1Br: 86.5% (active)
Nc1cc(Br)cc2c1[nH]c1ccc(Br)cc12: 98.1% (active)
COC(=O)/C=C/c1cccc[n+]1[O-]: 0.55% (inactive)
O=C(CCc1c[nH]c2ccccc12)c1ccccc1O: 59.3% (inactive)
N#Cc1ccc2nc3ccc(N)cc3nc2c1: 20.1% (inactive)
Cc1cc(C)c(Cc2cc(C(C)(C)C)cc(C)c2O)cc1Cc1cc(C(C)(C)C)cc(C)c1O: 63.6% (inactive)
CCCC(=O)Oc1ccc([N+](=O)[O-])cc1: 11.1% (inactive)
S=C(Nc1ccccc1)N(Cc1ccccc1)c1ccccc1: 46.2% (inactive)

In the following, a different molecule is considered.
The value of growth inhibition measured for the molecule COc1cc(N=Nc2ccccc2)cc(/C=N/NC(N)=S)c1O turned out to be 88.8% (active)
